Every entry's value here was drawn from paper PMC10786891.

Target: T1, EsCas13d, nuclease-dead (Eubacterium siraeum, UniProt B0MS50, R295A;H300A;R849A;H854A)
T1 sequence: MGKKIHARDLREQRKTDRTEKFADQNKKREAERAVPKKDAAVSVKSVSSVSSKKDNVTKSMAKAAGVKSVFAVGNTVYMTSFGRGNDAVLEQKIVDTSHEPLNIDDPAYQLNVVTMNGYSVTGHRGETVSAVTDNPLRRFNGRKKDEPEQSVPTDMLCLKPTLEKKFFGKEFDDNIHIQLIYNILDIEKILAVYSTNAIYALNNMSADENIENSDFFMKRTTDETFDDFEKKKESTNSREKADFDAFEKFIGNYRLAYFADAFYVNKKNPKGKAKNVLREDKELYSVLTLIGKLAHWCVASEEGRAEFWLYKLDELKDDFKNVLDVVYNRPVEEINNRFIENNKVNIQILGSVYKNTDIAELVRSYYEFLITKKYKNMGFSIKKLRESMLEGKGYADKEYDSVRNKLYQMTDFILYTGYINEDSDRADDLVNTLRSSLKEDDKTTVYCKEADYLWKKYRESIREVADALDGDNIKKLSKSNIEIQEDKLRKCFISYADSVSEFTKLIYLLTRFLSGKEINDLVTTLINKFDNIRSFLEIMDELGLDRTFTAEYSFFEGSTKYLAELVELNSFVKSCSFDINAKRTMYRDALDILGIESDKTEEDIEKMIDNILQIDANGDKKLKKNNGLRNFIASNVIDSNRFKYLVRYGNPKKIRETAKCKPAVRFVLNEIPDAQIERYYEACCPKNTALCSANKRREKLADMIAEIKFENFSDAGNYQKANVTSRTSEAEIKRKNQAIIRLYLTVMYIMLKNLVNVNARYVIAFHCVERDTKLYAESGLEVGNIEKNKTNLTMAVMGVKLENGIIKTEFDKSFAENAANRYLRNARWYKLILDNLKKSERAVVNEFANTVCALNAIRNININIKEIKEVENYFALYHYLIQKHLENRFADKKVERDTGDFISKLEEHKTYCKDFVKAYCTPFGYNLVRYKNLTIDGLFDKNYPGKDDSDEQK
Assay: crRNA (strand 1, pre-loaded); Mg2+; 40 mM Tris-HCl pH 7.5, 150 mM NaCl, 6 mM MgCl2, 1 mM DTT, 0.1% Tween-20, 0.2 mg/ml BSA; 25 C; 10 min per concentration, then washed
Settings: tags: His6-TwinStrep-SUMO cleaved; N-terminal SNAP kept (SNAP-Surface 488); label: 3' end held by stalled T7 RNA polymerase
READOUT_LABEL: Kd

Reference set, count: 3
{"columns": ["BINDER", "Kd"],
 "data": [
  ["target 2 MT 5'PFS UGC 3'PFS CUA (mixed) RNA 1: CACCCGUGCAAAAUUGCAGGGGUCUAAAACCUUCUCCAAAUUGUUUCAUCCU RNA 2: GGGAAUGGAUCCACAUCUACGAAUUCUGCAGGAUGAAACAAUUUGGAGAAGCUAAGAUCGGAAGAGCACACGU", "16 nM"],
  ["target 1 MT 5'PFS UAA 3'PFS CUU (mixed) RNA 1: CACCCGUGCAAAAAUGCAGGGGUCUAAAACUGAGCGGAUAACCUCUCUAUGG RNA 2: GGGAAUGGAUCCACAUCUACGAAUUCUAACCAUAGAGAGGUUAUCCGCUCACUUAGAUCGGAAGAGCACACGU", "48 nM"],
  ["target 2 MT 5'PFS ACA 3'PFS AAU (mixed) RNA 1: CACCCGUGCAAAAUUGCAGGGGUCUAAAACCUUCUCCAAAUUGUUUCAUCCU RNA 2: GGGAAUGGAUCCACAUCUACGAAUUCACAAGGAUGAAACAAUUUGGAGAAGAAUAGAUCGGAAGAGCACACGU", "5.7 nM"]
]}

Alright, here's another binder for you.
Exam item: # get_value(readout='Kd', item= target 2 MT 5'PFS UGG 3'PFS AGC (mixed) RNA 1: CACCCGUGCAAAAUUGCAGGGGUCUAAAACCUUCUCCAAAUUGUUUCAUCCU RNA 2: GGGAAUGGAUCCACAUCUACGAAUUCUGGAGGAUGAAACAAUUUGGAGAAGAGCAGAUCGGAAGAGCACACGU )
Marked response: 6 nM
